# Tested On: UniProt P51684
# Test: potency against CXCR6 with APJ panel – cell-based, beta-arrestin, DiscoveRx, uHTS hits, dose response (AID 624129)
# Experimental Parameters: CXCR6 beta-arrestin (DiscoveRx) antagonist cell assay, CCR6, dose range 1
Could you please report measured IC50 for the items listed next?

Please review the entries below; each comes with its answer.
>>> print(df.to_string())
                                 smiles_str   result
0  CCN1/C(=C\C=C2\C(=O)N(c3ccccc3)C(=S)N2C)Sc2ccccc21  4.79 µM
1  CCS(=O)(=O)c1ncc(Cl)c(C(=O)Nc2ccc(S(=O)(=O)N(C)c3ccccc3)cc2)n1  4.87 µM
2  Cc1ccnc(N2C(=O)c3cccc4c([N+](=O)[O-])ccc(c34)C2=O)c1   2.2 µM
3  O=C(NNC(=O)C12CC3CC(CC(C3)C1)C2)c1ccccn1  8.92 µM
4  COc1ccc([N+](=O)[O-])c(S(=O)(=O)c2ccccc2)n1  22.6 µM
5             Oc1c(Br)cc(Br)cc1C=NCc1ccccc1  16.8 µM
6     COCc1cc(=O)[nH]c(Nc2nc3ccc(C)cc3o2)n1  3.97 µM
7  Cc1cc(C)c2c(=O)n(CC(=O)Nc3cccc(Cl)c3C)sc2n1  1.85 µM

I'm hoping you can list IC50 for every molecule here, please.
1. Cc1ccc(OCCN2C(=O)c3ccccc3C2=O)c([N+](=O)[O-])c1
2. COC(=O)c1ccc2c(c1)C(C)(C)C(/C=C/c1ccc(OC)c(OC)c1OC)=[N+]2C

Return:
8.16 µM
7.5 µM
